system: NCI-H460
outcome_measure: GI50

Solved entries (count: 4):
- molecule: "NCCNc1nc2ccccc2c2c(=O)c3cc(Cl)ccc3sc12 [Compound N14]"
  value_observed: "1690 nM"
- molecule: "CN(C)CCNc1nc2ccccc2c2c(=O)c3cc(Cl)ccc3sc12 [Compound N7]"
  value_observed: "1760 nM"
- molecule: "CCNc1nc2ccccc2c2c(=O)c3cc(Cl)ccc3sc12 [Compound N2]"
  value_observed: "> 100000 nM"
- molecule: "O=c1c2cc(Cl)ccc2sc2c(NCCCNCCO)nc3ccccc3c12 [Compound N19]"
  value_observed: "1660 nM"

Let us examine a further case.
Problem: Record lookup: for NCI-H460, what GI50 belongs to O=c1c2cc(Cl)ccc2sc2c(NCc3ccccc3)nc3ccccc3c12 [Compound N25] ?
Solution: 5000 nM
